Reported Km values follow for various proteins
# Substrate: O=C1c2c(O)cc(O)cc2O[C@H](c2ccc(O)cc2)[C@H]1O
# Experimental protocol: purified protein
# Type: biochemical, Camellia sinensis
# Experimental context: apparent Km, NADPH, 0.1 M potassium phosphate pH 7.0, 30 °C
Express the result in µM but write the number alone.

The examples below pair each entry with its known result.
{"columns": ["Protein", "Km, µM"],
 "data": [
  ["CsDFRb1 (Camellia sinensis; N120S) (protein, only point mutants active) MEVVEVKNGYGGGGGTTVCVTGASGFIGSWLVMRLLQRGYYVRATVRDPDNTDKVKHLLDLPNATTHLSLWKADLDEDGSFDDAIQGCHGVFHVATPMNFVFVMDPENEYIKPTVDGVLSVMRSCCKAKTVKRIIYTSTMATIEYQQKPPSQYDESIWTDVDFCRARKMFAWMYLVAKTEAEKAAWKFAEDNGPDLITVHPCSVIGPFITPYKPPCTSMALALITKNKAFYPMLTQGHAVHVDDVCNAHIYLFEHPQAKGRYICSSHSFTILDLASSLSKKYPEYNIQTKFEDIDESLKPIPCPSKKLLDLGFKFKYNSDECDAGDLCAEAIEACKEKGQMPSL", 148.96],
  ["CsDFRb1 (Camellia sinensis; C126T) (protein, only point mutants active) MEVVEVKNGYGGGGGTTVCVTGASGFIGSWLVMRLLQRGYYVRATVRDPDNTDKVKHLLDLPNATTHLSLWKADLDEDGSFDDAIQGCHGVFHVATPMNFVFVMDPENEYIKPTVDGVLNVMRSCTKAKTVKRIIYTSTMATIEYQQKPPSQYDESIWTDVDFCRARKMFAWMYLVAKTEAEKAAWKFAEDNGPDLITVHPCSVIGPFITPYKPPCTSMALALITKNKAFYPMLTQGHAVHVDDVCNAHIYLFEHPQAKGRYICSSHSFTILDLASSLSKKYPEYNIQTKFEDIDESLKPIPCPSKKLLDLGFKFKYNSDECDAGDLCAEAIEACKEKGQMPSL", 131.09]
]}

# input for lookup
Tell me the measured Km of CsDFRc (Camellia sinensis) (protein) MEDTKSKLQEGSAVESLTTTTYCVTGATGYIGSWLVKSLLQRGYRVHATVRNQAKTLHLLPLWGGGDRLRVFRADLHKEGSFNEAVQGCSGVFHVAASMEFEVPAKEDIDSYVRANVIEPAINGTLNLLKSCLKTPSVRRVVFTSSISTMTAKDSAGKWRSVVDESCQNPIDRVWKTKTGAWVYVLSKLLTEEAAFQFANENSIDLVSVITTTVAGPFLTSTVPTSVQVLLSPITGDSKFSRILSAVNSRMGSIALVHIEDICSAHIFLMEHDGAEGRYICSAHSSVISQLVDHLAKEHPFSNMQRLVEEEHGSVPSEISSKKLRDLGFNFKFGLEDIIHHTVSSCVDCGFLCPTVN , please.
42.31
